test: ATG_NRF2_ARE_CIS: Attagene CIS-FACTORIAL HepG2 Assay for human Nuclear Factor Erythroid 2 Related Factor 2 (NFR2) response to Antioxidant Response Elements (ARE) (AID 2282992); settings: HepG2 Attagene ARE/NRF2 reporter, transcription factor activity; actives raise or lower the signal;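 on AC50: reporter mRNA level measured by RT-PCR and capillary electrophoresis fluorescence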
Active and inactive are the calls of the source. How the source made its calls: active means hit-call score of the fitted dose curve at least 0.9, where 1 is the maximum; inactive means score below 0.9.
parameter-measured: AC50

The following compounds have reported results that may help.
So what does the record say about AC50 for C[Si](C)(C)O[Si](O)(O)O ?
inactive

Quick one: AC50 for CC(=O)NS(=O)(=O)c1ccc(N)cc1 ?
inactive

Can you look up the measured AC50 of CC[C@H]1OC(=O)[C@H](C)[C@@H](O[C@H]2C[C@@](C)(OC)[C@@H](O)[C@H](C)O2)[C@H](C)[C@@H](O[C@@H]2O[C@H](C)C[C@H](N(C)C)[C@H]2O)[C@](C)(O)C[C@@H](C)C(=NOCOCCOC)[C@H](C)[C@@H](O)[C@]1(C)O for me?
inactive

Look up AC50: O=C(O)c1cc2ccccc2nc1C(=O)O
inactive

What value of AC50 has been recorded for this entry: [Cl][In]([Cl])[Cl]
17.6 µM (active)

Look up AC50 for this compound: C/C=C\C/C=C/CCCCCCCCOC(C)=O
26.8 µM (active)

Others:
# query: AC50 of entry O=C1CCC(=O)N1Cl
inactive

Item under review: CC(C)(C)c1ccc(OC(=O)c2ccccc2O)cc1 . Reported AC50?
inactive

# AC50 lookup, item C=C1C2CCC(C2)C1(C)C (stereo not given)
inactive

Would you mind telling me what AC50 value was observed for C=C(C)CCO ?
inactive

What does the data say about its AC50? Entry: CCOC(=O)[C@H](C)O
26.7 µM (active)

Recorded AC50 for CCCCCCOC(=O)C(C)CC (stereo not given) , please?
inactive

Which AC50 value belongs to CC(=O)OCc1ccco1 ?
45.3 µM (active)

Bench note: what AC50 did CCOC(=O)CC(C(C)=O)C(C)=O show?
inactive

Look up AC50 for this compound: O=C1CCCC(=O)O1
inactive

###

target: sheep Cyclooxygenase-1 (Cox1), PTGS1 (gene 443551) (UniProt P05979); assay: NVS_ENZ_oCOX1: NovaScreen (NVS) Enzymatic Assay for sheep Cyclooxygenase-1 (Cox1) (AID 2283239);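 further: actives reduce cyclooxygenase activity so potencies are for inhibitors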
Sequence (P05979 whole entry, looked up): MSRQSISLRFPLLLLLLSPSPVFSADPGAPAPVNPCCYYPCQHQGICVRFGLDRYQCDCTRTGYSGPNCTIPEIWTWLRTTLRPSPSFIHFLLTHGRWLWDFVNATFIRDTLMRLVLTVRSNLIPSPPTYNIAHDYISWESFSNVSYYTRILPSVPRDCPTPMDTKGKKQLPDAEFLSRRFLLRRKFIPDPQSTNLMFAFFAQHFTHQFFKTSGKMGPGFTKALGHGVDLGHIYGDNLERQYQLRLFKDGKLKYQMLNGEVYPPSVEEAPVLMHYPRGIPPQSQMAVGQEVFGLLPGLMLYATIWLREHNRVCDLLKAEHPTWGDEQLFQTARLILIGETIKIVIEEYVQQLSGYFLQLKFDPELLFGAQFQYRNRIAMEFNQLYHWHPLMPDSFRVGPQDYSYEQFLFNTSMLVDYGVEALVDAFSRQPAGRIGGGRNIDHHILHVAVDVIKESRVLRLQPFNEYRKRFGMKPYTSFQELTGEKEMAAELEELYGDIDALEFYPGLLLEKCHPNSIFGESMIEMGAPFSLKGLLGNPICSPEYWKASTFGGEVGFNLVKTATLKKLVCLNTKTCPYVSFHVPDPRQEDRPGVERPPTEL
Inconclusive results are not listed. Calls of active or inactive are those of the source. How the source made its calls: active means hit-call score of the fitted dose curve at least 0.9, where 1 is the maximum; inconclusive means response in the unintended direction; inactive means score below 0.9.
Outcome (select one): True for active, False for inactive

Outcome logged for N#[N+]c1ccc2c(S(=O)(=O)[O-])cccc2c1O in this assay:
True

Identify the outcome logged in this assay for the molecule shown: c1ccc2c(c1)ccc1cc3c(ccc4ccccc43)cc12
True

***
I would be grateful if you could indicate the recorded call for COc1ccc2nc(N)sc2c1 .
True

// param item: c1ccc(-c2ccccn2)nc1 ; yields the recorded call
False

Hey, what did the test say about C/C=C\C/C=C/CCCCCCCCOC(C)=O ?
True

###

read-out: Interleukin 6 (IL6), IL6 (gene 3569); assay: BSK_BT_xIL6: BioMAP Diversity Plus: BT Assay for Interleukin 6 (IL6) Biomarker Activity (AID 2284228); details: primary human B cells with PBMC
Calls of active or inactive are those of the source. Rule for the calls: active = hit-call score of the fitted dose curve at least 0.9, where 1 is the maximum; inactive = score below 0.9.
Return exactly one item of True = active, False = inactive

Worked cases, answers included:
Short answer needed: outcome of this test for C#CC1(O)CC[C@H]2[C@@H]3CCC4=CCCC[C@@H]4[C@H]3CC[C@@]21C (some centres not stated) ?
True

Assay result, entry O=C(Nc1ccccc1SSc1ccccc1NC(=O)c1ccccc1)c1ccccc1 — outcome?
True

// outcome(item) with item = C/C=C\C/C=C/CCCCCCCCOC(C)=O
True

Identify the outcome logged in this assay for the molecule shown: c1ccc(-c2ccccn2)nc1
False

Short answer needed: outcome of this test for COc1ccc2nc(N)sc2c1 ?
False

Identify the outcome logged in this assay for the molecule shown: N#[N+]c1ccc2c(S(=O)(=O)[O-])cccc2c1O
False

Further cases:
For C=CCOCC(O)CCl (configuration not stated) , which call appears in the assay record?
False

I would be grateful if you could indicate the recorded call for CCCCC/C=C\C/C=C\CCCCCCCC(=O)OC .
True

What did this assay record as the result for CCCCCCCCc1ccc(Nc2ccc(CCCCCCCC)cc2)cc1 ?
False

Hey, what did the test say about CC(C)(c1cc(Br)c(OCCO)c(Br)c1)c1cc(Br)c(OCCO)c(Br)c1 ?
True

# lookup: test call for CCCCCCCCCCCCCCCC[N+](C)(C)CC
True

Please let me know the test result on file for CCCCNc1ccc(NCCCC)c2c1C(=O)c1ccccc1C2=O .
False

Test call, this molecule: c1ccc2c(c1)ccc1ncccc12
True

Any idea what this test logged for COCc1c(C(C)C)nc(C(C)C)c(/C=C/[C@@H](O)C[C@@H](O)CC(=O)O)c1-c1ccc(F)cc1 ?
True

In this assay, the call recorded for O=Nc1ccc(O)cc1 was what?
False

Dear colleague, could you share the recorded outcome for O=C(Cl)c1cc(C(=O)Cl)cc(C(=O)Cl)c1 when you have a moment?
True

Which outcome was assigned to CCCCC(CC)COC(=O)c1ccccc1O (configuration not stated) in this test?
False
